Test system: IGROV1 ovarian
EXPERIMENT_NOTES: NCI-60 one-dose screen, 48 h
TEST_SETTINGS: 10 µM unless noted
About 83,000 compounds went through this panel and 20% of them were active in at least one assay; those are over-represented in the sample as a whole. Active and inactive are the calls of the source. Rule for the calls: active = growth percent below 10; inactive = the rest.
Respond using exactly one of the listed classes: active, inactive

| COMPOUND | TESTED_TARGET | ASSIGNED_CLASS |
| --- | --- | --- |
| O=C(c1cccc(Br)c1)N1CCN(c2ccnc3cc(Cl)ccc23)CC1 | IGROV1 ovarian | inactive |
| COc1ccc(/C=C2\COc3ccc(O)c(O)c3C2=O)c(OC)c1OC | IGROV1 ovarian | inactive |
| COc1cc2nc3cc([N+](=O)[O-])ccc3c(NCCNCC(C)(C)O)c2cc1OC | IGROV1 ovarian | active |
| CC(=O)N1N=C(c2ccc(F)cc2)CC1c1sc(N(C)Cc2ccccc2)nc1Cl (centres undefined) | IGROV1 ovarian | inactive |
| O=C(NNc1ccccc1)c1ncc[nH]1 | IGROV1 ovarian | inactive |
| O=C1C(N2CCOCC2)=C(I)C(=O)c2ncccc21 | IGROV1 ovarian | inactive |
| Cc1cccc(Cc2cnc(NC(=O)CCCOc3ccc(Cl)cc3)s2)c1 | IGROV1 ovarian | inactive |
| COc1cc(-c2nc3occn3c2-c2ccnc(NCCCNS(=O)(=O)c3ccc(O)cc3)n2)ccc1F | IGROV1 ovarian | inactive |

Consider now this further compound.
IN: What was the test verdict on `CCCCCCCCCCCCCCCCCCOc1cccc(CC(=O)OCC[N+](CC)(CC)CC)c1` ?
OUT: inactive

* * *

System: OVCAR-4 ovarian
EXPERIMENT_NOTES: NCI-60 one-dose screen, 48 h
TEST_SETTINGS: 10 µM unless noted
The panel holds about 83,000 compounds, 20% with a hit somewhere; the sample as a whole holds those more often. Active and inactive are the calls of the source. Rule for the calls: active = growth percent below 10; inactive = the rest.
In this exercise, the only acceptable responses are t (active), f (inactive)

| COMPOUND | ASSIGNED_CLASS |
| --- | --- |
| Cc1oc2c(Cc3ccc(NC(=O)c4ccc(Cl)cc4)cc3)ncnc2c1C(=O)NO | f |
| O=C(Nc1ccc(Cl)c(Cl)c1)Nc1ccc(Cl)c(Cl)c1 | t |
| Cc1c(CC(=O)OCCO)cc(-c2ccc(Cl)cc2)n1-c1ccccc1 | f |
| COc1ccc(/C=C/C(=O)c2cc3c(N)c(C(=O)Nc4ccccc4Cl)sc3nc2C)cc1 | t |
| CC(=O)Nc1c(I)c(NC(C)=O)c(I)c(C(=O)O)c1I | f |
| CCCCCCCCCCCCCCCC(=O)O[C@@H]1[C@@H](O)[C@@H](O)C([C@H](NC(=O)[C@@H]2C[C@@H](CCC)CN2C)[C@H](C)Cl)O[C@@H]1SC (stereo partly drawn) | f |
| Fc1ccc(NC(c2ccc(F)cc2)C2CCN(CCCCc3ccccc3)CC2)cc1 (stereo not drawn) | f |

IN: Each compound tested received a call. Report the one for `COc1ccc(CN2CCc3c(Cl)nc(N)nc3C2=O)c(OC)c1` .
OUT: f

* * *

Test system: UACC-257 melanoma
EXPERIMENT_NOTES: NCI-60 one-dose screen, 48 h
TEST_SETTINGS: 10 µM unless noted
Compounds without any hit were thinned out: in the full panel of roughly 83,000, 20% have a hit. Active and inactive are the calls of the source. The calls were made as follows: active = growth percent below 10; inactive = the rest.
Choose one outcome from this list and give only that: active, inactive

| MOLECULE | ASSIGNED_CLASS |
| --- | --- |
| Cc1ccc(S(=O)(=O)Nc2cc(Sc3ccccc3)c(O)c3ccccc23)cc1 | inactive |
| O=c1ccc2nc(-c3ccccn3)nn(-c3ccccc3)c-2c1 | inactive |
| O=C(Oc1ccc(CO[N+](=O)[O-])cc1)c1ccccc1 | active |
| NCCOCCOc1ccccc1 | inactive |
| CC1(Cc2ccccc2)CC2=C(C(=O)O1)C(c1ccccc1)NC(=O)N2 (stereo not drawn) | inactive |
| O=C1C=C(Nc2ccccc2)c2ncccc2C1=O | active |
| CC(C)=CCc1cc(O)c(O)c2oc3cc(O)cc(O)c3c(=O)c12 | inactive |
| COc1ccc(Nc2ncnc3ccc(-c4cncc(NS(C)(=O)=O)c4)cc23)cc1Cl | inactive |
| O=C(NNc1ccccc1)C1CCCN1 (stereo not drawn) | inactive |
| N=c1c2c(-c3ccccc3)c(-c3ccccc3)oc2ncn1NC(=O)c1cccnc1 | inactive |

IN: Please indicate how the test categorized `Cc1oc2c(Cc3ccc(NC(=O)c4ccc(Cl)cc4)cc3)ncnc2c1C(=O)NO` .
OUT: inactive

IN: Fill in: this test's call for `O=C1/C(=C/c2ccc(-c3ccccc3C(F)(F)F)o2)SC(=S)N1CCc1ccc(O)cc1` is ___
OUT: inactive

IN: Could you kindly confirm the outcome this assay logged for `Cc1ccc(-c2nc3nc(-c4ccccc4)nc(N4CCCNCC4)c3o2)cc1` ?
OUT: active

IN: Give the logged outcome of this assay for the following molecule: `C=CCN1C=CC(=O)[C@H](O[Si](C)(C)C(C)(C)C)[C@@H]1/C=C/c1ccccc1`
OUT: active

IN: Could you please tell me the result logged for `COC(=O)/C=C1/SC(=Nc2ccc([N+](=O)[O-])cc2)N(CCc2c[nH]c3ccccc23)C1=O` in this assay?
OUT: inactive

IN: Identify the outcome logged in this assay for the molecule shown: `COc1ccc(S(=O)(=O)Nc2cc(Sc3cccc4cccnc34)c(O)c3ccccc23)cc1`
OUT: active

IN: So what was the verdict on `Cc1ccc(NC(=O)N/C(N)=N/c2nc(=O)c3ccccc3s2)cc1` in this test?
OUT: inactive

IN: What was the test verdict on `O=C(N=Nc1c(O)[nH]c2ccccc12)Nc1ccc(Br)cc1` ?
OUT: inactive

IN: Tell me the assay call for `CC[C@@H]1NC(=O)[C@H]([C@H](O)[C@H](C)C/C=C/c2ccc(CN3C(=O)C(C)=C(C)C3=O)cc2)N(C)C(=O)[C@H](C(C)C)N(C)C(=O)[C@H](CC(C)C)N(C)C(=O)[C@H](CC(C)C)N(C)C(=O)[C@@H](C)NC(=O)[C@H](C)NC(=O)[C@H](CC(C)C)N(C)C(=O)[C@H](C(C)C)NC(=O)[C@H](CC(C)C)N(C)C(=O)CN(C)C1=O` please.
OUT: inactive

IN: # fetch the recorded call for `O=C1C(c2c[nH]c3ccccc23)=C(c2coc3cc(Br)ccc23)C(=O)N1O` here
OUT: inactive

IN: Returns: the outcome recorded for `Nc1nc2ccccc2c2c(=O)c3ccc(Cl)cc3sc12` in this assay.
OUT: inactive

IN: Recorded test call requested for `CCNC(=O)Nc1ncccc1OCc1ccc(F)cc1`
OUT: inactive

IN: Identify the outcome logged in this assay for the molecule shown: `CCC(=O)Oc1cc(Cl)c(Cl)cc1Cl`
OUT: inactive

IN: Given `Nn1c(-c2ccc(Cl)cc2)nc2c(-c3ccc(Cl)cc3)nc3ccc(Cl)cc3c2c1=O` , state the outcome it received in this test.
OUT: active

* * *

Test system: SK-MEL-28 melanoma
EXPERIMENT_NOTES: NCI-60 one-dose screen, 48 h
TEST_SETTINGS: 10 µM unless noted
The panel holds about 83,000 compounds, 20% with a hit somewhere; the sample as a whole holds those more often. Calls of active or inactive are those of the source. The calls were made as follows: active = growth percent below 10; inactive = the rest.
Pick one: T for active, F for inactive

| COMPOUND | ASSIGNED_CLASS |
| --- | --- |
| C=C1C(=O)O[C@@H]2[C@H]3[C@H](COC(C)=O)[C@@H](OC(C)=O)C[C@H]3C(=C)[C@@H](O)C[C@@H]12 | F |
| COc1ccc2c(O)c(/C=C3\N=Nc4nc(C)ccc43)oc2c1CC1CCNCC1 | T |
| Cc1ccc(S(=O)(=O)OC[C@@]2(C)CC[C@]3(C)CC[C@]4(C)C(=C3C2)C=C[C@@H]2[C@@]3(C)CCCNC(C)(C)[C@@H]3CC[C@]24C)cc1 | F |
| COc1ccc(-c2ccccc2)cc1-c1c(Nc2cc(Cl)cc(Cl)c2O)c(=O)c1=O | F |
| Nc1c(C(=O)Nc2ccncc2)sc2nc3c(cc12)CCCCCCCC3 | T |
| COC(=O)/C=C1/SC(N2N=C(c3cccs3)CC2c2ccc(F)cc2)=NC1=O (configuration not stated) | F |

IN: What outcome does the record of this test show for `NCCOCCOc1ccccc1` ?
OUT: F

IN: Dear colleague, could you share the recorded outcome for Cc1nc2sc(C(=O)Nc3cccc4ncccc34)c(N)c2cc1C(C)O (configuration not stated) when you have a moment?
OUT: F

* * *

Test system: NCI-H522 lung
EXPERIMENT_NOTES: NCI-60 one-dose screen, 48 h
TEST_SETTINGS: 10 µM unless noted
About 83,000 compounds went through this panel and 20% of them were active in at least one assay; those are over-represented in the sample as a whole. The source made the active and inactive calls. How the source made its calls: active means growth percent below 10; inactive means the rest.
Pick from yes (1) for active, no (0) for inactive when you respond.

Some solved entries appear below for comparison.
| COMPOUND | TESTED_TARGET | ASSIGNED_CLASS |
| --- | --- | --- |
| CCCCCCCC/C=C\CCCCCCCCOc1ccccc1CC(=O)NCC[N+]1(C)CCOCC1 | NCI-H522 lung | no (0) |
| C=CCNC(=O)Cc1c(-c2ccc(OC)cc2)oc2c(OC)c3c(c(OC)c12)OCO3 | NCI-H522 lung | no (0) |

IN: Short answer needed: outcome of this test for `O=C1/C(=C/c2ccc(F)c(F)c2)CN(C(=O)C(Cl)Cl)C/C1=C\c1ccc(F)c(F)c1` ?
OUT: yes (1)

IN: // return assay outcome for CC1(Cc2ccccc2)CC2=C(C(=O)O1)C(c1ccccc1)NC(=O)N2 (configuration not stated)
OUT: no (0)

IN: // outcome(item) with item = `Cc1nnc(NS(=O)(=O)c2ccc(N=Nc3ccc(N)nc3N)cc2)s1`
OUT: no (0)

IN: # outcome recorded in this test, key = `CCOC(=O)n1cc(-c2nonc2-c2cn(C)c3ccc(OC)cc23)c2cc(F)ccc21`
OUT: no (0)

IN: Lab log entry: `COc1ccc2c(c1)oc1c(C)c3c(c(C)c12)C(=O)N(Nc1ccccc1)C3=O` — outcome as called in the assay?
OUT: no (0)

IN: What did the test return for `CONC1=Nc2cc(NC(N)=NCc3ccccc3)c(N(C)C3CCCCC3)cc2OC1` ?
OUT: no (0)

IN: # outcome recorded in this test, key = `COc1cc(Nc2nc3ccccc3cc2C(=O)Nc2ccc(F)c(F)c2)cc(OC)c1OC`
OUT: no (0)

IN: Write down the call the test reported for this compound. Item: `CCOC(=O)c1ccc(Nc2ncnc3c2cnn3-c2cccc(F)c2)cc1`
OUT: no (0)
